Quick reference for IC50 among some compounds
# EXPERIMENTAL TARGET: human recombinant FAAH (Homo sapiens (Human), UniProt O00519)
# Sequence (O00519 whole entry): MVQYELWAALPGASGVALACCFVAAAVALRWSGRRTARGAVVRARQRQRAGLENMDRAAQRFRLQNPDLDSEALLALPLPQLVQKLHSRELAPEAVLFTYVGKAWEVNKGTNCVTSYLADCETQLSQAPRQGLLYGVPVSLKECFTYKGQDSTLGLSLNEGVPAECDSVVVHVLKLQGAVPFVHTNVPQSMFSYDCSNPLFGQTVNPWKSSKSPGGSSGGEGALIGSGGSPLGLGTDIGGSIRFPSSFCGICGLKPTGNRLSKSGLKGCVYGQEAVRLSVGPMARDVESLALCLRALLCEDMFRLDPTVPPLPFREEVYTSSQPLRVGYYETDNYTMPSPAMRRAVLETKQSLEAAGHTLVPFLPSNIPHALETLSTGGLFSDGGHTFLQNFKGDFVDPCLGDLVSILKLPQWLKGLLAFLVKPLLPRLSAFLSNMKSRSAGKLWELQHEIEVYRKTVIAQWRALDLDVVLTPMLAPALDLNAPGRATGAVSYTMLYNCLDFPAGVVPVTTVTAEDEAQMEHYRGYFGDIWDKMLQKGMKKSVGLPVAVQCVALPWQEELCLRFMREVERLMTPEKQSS
# ASSAY SUMMARY: In vitro inhibition of FAAH activity (fluorescent inhibitor screening kit, AMC arachidonoyl amide)
# Assay type: biochemical
# EXPERIMENTAL CONDITIONS: human recombinant FAAH; read-out: Inhibition on FAAH activity (IC50)

Cc1cc(OC(=O)NCc2ccccc2)cc(-c2cncc(-c3ncco3)c2)c1
> 1000 nM
Cc1cc(OC(=O)NC2CCC(C)CC2)cc(-c2cncc(-c3ncco3)c2)c1 (centres unmarked)
> 1000 nM
CCCCCCCCNC(=O)Oc1cccc(-c2cncc(C(=O)OC)c2)c1
1 to 10 nM
COc1ccc(OC(=O)NC2CCCCCC2)cc1-c1cncc(-c2nnn[nH]2)c1
> 1000 nM
CC1CCC(NC(=O)Oc2ccc(F)c(-c3cncc(-c4ncco4)c3)c2)CC1 (centres unmarked)
10 to 100 nM

**Q:** Form: Entry = O=C(NCc1ccccc1)Oc1ccc(O)c(-c2cncc(-c3nnn[nH]3)c2)c1 | System = human recombinant FAAH (Homo sapiens (Human), UniProt O00519) | IC50 = ____
**A:** > 1000 nM

**Q:** Find the measured IC50: item COc1ccc(OC(=O)NC2CCCCCC2)cc1-c1cncc(-c2nnco2)c1 , target or system human recombinant FAAH (Homo sapiens (Human), UniProt O00519).
**A:** 112 nM

**Q:** Hello, I am looking for reported IC50 with human recombinant FAAH (Homo sapiens (Human), UniProt O00519) for COc1ccc(OC(=O)NC2CCCCCC2)cc1-c1cncc(-c2nccs2)c1 . Could you help?
**A:** 100 to 1000 nM

**Q:** Lab request: please report IC50 under test system human recombinant FAAH (Homo sapiens (Human), UniProt O00519) for COc1ccc(OC(=O)NC2CCCCC2)cc1-c1cncc(-c2nccs2)c1
**A:** 100 to 1000 nM

**Q:** For the record O=C(NC1CCCCC1)Oc1cccc(-c2cncc(-c3ccc[nH]3)c2)c1 , what value of IC50 is listed for human recombinant FAAH (Homo sapiens (Human), UniProt O00519)?
**A:** 100 to 1000 nM

----------
# EXPERIMENTAL TARGET: human recombinant MAGL (Homo sapiens (Human), UniProt Q99685)
# Sequence (Q99685 whole entry): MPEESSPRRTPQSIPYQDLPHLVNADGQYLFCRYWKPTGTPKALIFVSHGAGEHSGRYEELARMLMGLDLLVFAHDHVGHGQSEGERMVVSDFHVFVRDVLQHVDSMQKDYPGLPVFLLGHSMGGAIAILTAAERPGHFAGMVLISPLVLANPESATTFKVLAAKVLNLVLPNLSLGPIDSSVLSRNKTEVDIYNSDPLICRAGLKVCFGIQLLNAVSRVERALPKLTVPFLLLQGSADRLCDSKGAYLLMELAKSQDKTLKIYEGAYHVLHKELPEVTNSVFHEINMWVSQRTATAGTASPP
# ASSAY SUMMARY: In vitro inhibition of MAGL activity (inhibitor screening kit, 4-nitrophenylacetate)
# EXPERIMENTAL CONDITIONS: human recombinant MAGL
QUANTITY MEASURED: IC50

**Q:** # get_value(readout='IC50', item= O=C(Oc1cccc(-c2cncc(-c3nnco3)c2)c1)N1CC2(COC2)C1 [Example 152] )
**A:** > 10 µM

**Q:** Need IC50, item CCCCCCCCNC(=O)Oc1cc(O)cc(-c2cncc(-c3nnco3)c2)c1 [Example 160]
**A:** 1 to 10 µM

**Q:** What value of IC50 has been reported for the following compound? O=C(NCc1ccccc1)Oc1cccc(-c2cncc(-c3nnco3)n2)c1 [Example 265]
**A:** > 10 µM

**Q:** Returns the measured IC50 for the input compound. Input: CCCCCCCCNC(=O)Oc1ccc(OC)c(-c2cncc(-c3nncs3)c2)c1 [Example 213]
**A:** ~10 µM

**Q:** For the compound shown here, O=C(NC1CCCCC1)Oc1cccc(-c2cncc(-c3nnco3)n2)c1 [Example 267] , give the reported IC50.
**A:** > 10 µM
